assay: Compound solubility in water
Reported Endpoint: solubility (µg/mL)
Write the answer as a number in µg/mL, unit excluded.

Please review the entries below; each comes with its answer.
Molecule: O=C(NCCc1ccccc1)n1cnc2cc(N3CCCCC3)ccc21 [Example 13a]
Result Unit: µg/mL
solubility: 2.6

Molecule: CC(C)(C)CCCNC(=O)n1cnc2c(N3CCOCC3)cccc21
Result Unit: µg/mL
solubility: 10

Molecule: CN1CC2CN(c3cccc4c3ncn4C(=O)NCCCc3ccccc3)CC2C1 (centres unmarked)
Result Unit: µg/mL
solubility: 34

Molecule: CCCCNC(=O)n1c(OC)nc2ccc(-c3cncnc3)nc21 [Example 85a]
Result Unit: µg/mL
solubility: 40

// below: solubility requested for another molecule
[ask] Param item = CC(C)CCNC(=O)n1cnc2c(N3CCN(C4CC4)CC3)cccc21 ; retrieve measured solubility.
[reply] 14
